molecular target: S29A PncC (Escherichia coli, UniProt P0A6G3, S29A); construct: made in house; host or cells: E. coli BL21(DE3); assay type: binding, E. coli; conditions: nucleotide 0.375 µM
Sequence (P0A6G3 whole entry S29A): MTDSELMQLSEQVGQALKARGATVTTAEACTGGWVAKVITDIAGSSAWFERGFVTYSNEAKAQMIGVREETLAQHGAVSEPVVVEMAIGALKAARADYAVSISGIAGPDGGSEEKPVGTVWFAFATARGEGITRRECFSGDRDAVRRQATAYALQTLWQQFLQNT
Can you tell me S29A PncC fluorescence quenching (%) vs buffer for the items I'm about to list?
Give just the numeric value; % need not be written.

[in] Quick one: S29A PncC fluorescence quenching (%) vs buffer of NC(=O)c1ccc[n+]([C@@H]2O[C@H](COP(=O)([O-])O)[C@@H](O)[C@H]2O)c1 [NMN, nicotinamide mononucleotide] ?
[out] 0.58

[in] Form field: reported S29A PncC fluorescence quenching (%) vs buffer of Nc1ncnc2c1ncn2[C@@H]1O[C@H](COP(=O)(O)OP(=O)([O-])OC[C@H]2O[C@@H]([n+]3cccc(C(=O)O)c3)[C@H](O)[C@@H]2O)[C@@H](O)[C@H]1O [NaAD, nicotinic acid adenine dinucleotide]
[out] 0

[in] Which S29A PncC fluorescence quenching (%) vs buffer is reported for this compound? NC(=O)c1ccc[n+]([C@@H]2O[C@H](COP(=O)([O-])OP(=O)(O)OC[C@H]3O[C@@H](n4cnc5c(N)ncnc54)[C@H](O)[C@@H]3O)[C@@H](O)[C@H]2O)c1 [NAD, nicotinamide adenine dinucleotide]
[out] 0.32

---

system: glutamine binding protein (GlnBP); conditions: GlnBP, high concentration of nucleotide
Measurement Label: reduction of fluorescence of GlnBP (%)
All answers are understood in %, so give the number only.

[in] Suppose we examine the compound Nc1ncnc2c1ncn2[C@@H]1O[C@H](COP(=O)(O)OP(=O)([O-])OC[C@H]2O[C@@H]([n+]3cccc(C(=O)O)c3)[C@H](O)[C@@H]2O)[C@@H](O)[C@H]1O [NaAD, nicotinic acid adenine dinucleotide] ; what reduction of fluorescence of GlnBP value has been reported?
[out] 6.3

[in] Give the measured reduction of fluorescence of GlnBP of NC(=O)c1ccc[n+]([C@@H]2O[C@H](COP(=O)([O-])OP(=O)(O)OC[C@H]3O[C@@H](n4cnc5c(N)ncnc54)[C@H](O)[C@@H]3O)[C@@H](O)[C@H]2O)c1 [NAD, nicotinamide adenine dinucleotide] .
[out] 6.6

[in] Name the recorded reduction of fluorescence of GlnBP for NC(=O)c1ccc[n+]([C@@H]2O[C@H](COP(=O)(O)OP(=O)([O-])OC[C@H]3O[C@@H](n4cnc5c(N)ncnc54)[C@H](OP(=O)(O)O)[C@@H]3O)[C@@H](O)[C@H]2O)c1 [NADP] .
[out] 4.8

---

target: K61Q PncC (Escherichia coli, UniProt P0A6G3, K61Q); construct: made in house; host or cells: E. coli BL21(DE3); type: binding, E. coli; settings: nucleotide 0.185 µM
Sequence (P0A6G3 whole entry K61Q): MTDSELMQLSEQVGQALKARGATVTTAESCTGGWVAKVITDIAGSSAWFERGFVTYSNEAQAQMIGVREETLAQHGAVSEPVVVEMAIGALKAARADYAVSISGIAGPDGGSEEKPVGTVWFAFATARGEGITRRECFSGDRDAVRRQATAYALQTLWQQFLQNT
Measurement Label: K61Q PncC fluorescence quenching (%) vs buffer
# unit: % | format: bare number

[in] What value of measured K61Q PncC fluorescence quenching (%) vs buffer is listed for NC(=O)c1ccc[n+]([C@@H]2O[C@H](COP(=O)([O-])O)[C@@H](O)[C@H]2O)c1 [NMN, nicotinamide mononucleotide] ?
[out] 1.09

[in] For the compound shown here, NC(=O)c1cccnc1 [Nam, nicotinamide] , give the reported K61Q PncC fluorescence quenching (%) vs buffer.
[out] 0

[in] What value of measured K61Q PncC fluorescence quenching (%) vs buffer is listed for `O=C(O)c1cccnc1` ?
[out] 0.49

[in] Using the record for Nc1ncnc2c1ncn2[C@@H]1O[C@H](COP(=O)(O)OP(=O)([O-])OC[C@H]2O[C@@H]([n+]3cccc(C(=O)O)c3)[C@H](O)[C@@H]2O)[C@@H](O)[C@H]1O [NaAD, nicotinic acid adenine dinucleotide] , report its K61Q PncC fluorescence quenching (%) vs buffer.
[out] 0.65

---

Molecular target: K61Q PncC (Escherichia coli, UniProt P0A6G3, K61Q)
Construct: made in house; host or cells: E. coli BL21(DE3)
Format: binding, E. coli
Details: nucleotide 6 µM
Experimental: Experimental data were processed using the OriginPro 8.0 (OriginLab Corporation, Northampton, MA, USA). A non-linear curve analysis (Hill1 plot) was used for plotting the F0/F values in function of the metabolite concentration, to obtain the Kd value. Percentage of the K61Q protein that would exist in complex with NMN in a cellular setting was calculated based on the Kd value, by using the equation: %=100/1+Kd/[NMN]
Measurement Label: K61Q PncC fluorescence quenching (%) vs buffer
Give just the number in %; leave the unit off.

[in] Looking for the measured K61Q PncC fluorescence quenching (%) vs buffer of NC(=O)c1ccc[n+]([C@@H]2O[C@H](COP(=O)([O-])OP(=O)(O)OC[C@H]3O[C@@H](n4cnc5c(N)ncnc54)[C@H](O)[C@@H]3O)[C@@H](O)[C@H]2O)c1 [NAD, nicotinamide adenine dinucleotide] , can you help?
[out] 0

[in] Consider the compound `O=C(O)c1cccnc1` and give its measured K61Q PncC fluorescence quenching (%) vs buffer.
[out] 2.81

[in] What value of K61Q PncC fluorescence quenching (%) vs buffer has been recorded for this entry: Nc1ncnc2c1ncn2[C@@H]1O[C@H](COP(=O)(O)OP(=O)([O-])OC[C@H]2O[C@@H]([n+]3cccc(C(=O)O)c3)[C@H](O)[C@@H]2O)[C@@H](O)[C@H]1O [NaAD, nicotinic acid adenine dinucleotide]
[out] 2.39

[in] Please look up its K61Q PncC fluorescence quenching (%) vs buffer: NC(=O)c1cccnc1 [Nam, nicotinamide]
[out] 0.26

[in] Data request, read-out K61Q PncC fluorescence quenching (%) vs buffer, for NC(=O)c1ccc[n+]([C@@H]2O[C@H](CO)[C@@H](O)[C@H]2O)c1 [NR, nicotinamide riboside]
[out] 2.36

[in] Dear colleague, I am looking for the recorded K61Q PncC fluorescence quenching (%) vs buffer of the following compound: `NC(=O)c1ccc[n+]([C@@H]2O[C@H](COP(=O)(O)OP(=O)([O-])OC[C@H]3O[C@@H](n4cnc5c(N)ncnc54)[C@H](OP(=O)(O)O)[C@@H]3O)[C@@H](O)[C@H]2O)c1`
[out] 0

[in] Fill in the blank: the reported K61Q PncC fluorescence quenching (%) vs buffer of NC(=O)c1ccc[n+]([C@@H]2O[C@H](COP(=O)([O-])O)[C@@H](O)[C@H]2O)c1 [NMN, nicotinamide mononucleotide] is ____.
[out] 8.11

[in] Please report the recorded K61Q PncC fluorescence quenching (%) vs buffer for O=C(O)c1ccc[n+]([C@@H]2O[C@H](COP(=O)([O-])O)[C@@H](O)[C@H]2O)c1 [NaMN, nicotinic acid mononucleotide] .
[out] 2.80

---

So I've got a bunch of compounds here, and I need their S29A PncC fluorescence quenching (%) vs buffer values.
target: S29A PncC (Escherichia coli, UniProt P0A6G3, S29A); construct: made in house; host or cells: E. coli BL21(DE3); assay type: binding, E. coli; conditions: nucleotide 48 µM
Kindly answer with a numeric value in %, unit omitted.

[in] # S29A PncC fluorescence quenching (%) vs buffer lookup, item `O=C(O)c1cccnc1`
[out] 0.62

[in] // S29A PncC fluorescence quenching (%) vs buffer lookup, key: `NC(=O)c1ccc[n+]([C@@H]2O[C@H](COP(=O)(O)OP(=O)([O-])OC[C@H]3O[C@@H](n4cnc5c(N)ncnc54)[C@H](OP(=O)(O)O)[C@@H]3O)[C@@H](O)[C@H]2O)c1`
[out] 6.36

[in] Need S29A PncC fluorescence quenching (%) vs buffer, item NC(=O)c1ccc[n+]([C@@H]2O[C@H](COP(=O)([O-])OP(=O)(O)OC[C@H]3O[C@@H](n4cnc5c(N)ncnc54)[C@H](O)[C@@H]3O)[C@@H](O)[C@H]2O)c1 [NAD, nicotinamide adenine dinucleotide]
[out] 4.58

[in] For the compound shown here, Nc1ncnc2c1ncn2[C@@H]1O[C@H](COP(=O)(O)OP(=O)([O-])OC[C@H]2O[C@@H]([n+]3cccc(C(=O)O)c3)[C@H](O)[C@@H]2O)[C@@H](O)[C@H]1O [NaAD, nicotinic acid adenine dinucleotide] , give the reported S29A PncC fluorescence quenching (%) vs buffer.
[out] 1.97

[in] Endpoint output: S29A PncC fluorescence quenching (%) vs buffer of NC(=O)c1ccc[n+]([C@@H]2O[C@H](COP(=O)([O-])O)[C@@H](O)[C@H]2O)c1 [NMN, nicotinamide mononucleotide] . Value?
[out] 46.79

[in] Recorded S29A PncC fluorescence quenching (%) vs buffer for NC(=O)c1ccc[n+]([C@@H]2O[C@H](CO)[C@@H](O)[C@H]2O)c1 [NR, nicotinamide riboside] , please?
[out] 3.51

[in] Fill in the blank: the reported S29A PncC fluorescence quenching (%) vs buffer of O=C(O)c1ccc[n+]([C@@H]2O[C@H](COP(=O)([O-])O)[C@@H](O)[C@H]2O)c1 [NaMN, nicotinic acid mononucleotide] is ____.
[out] 52.28

[in] Bench note: what S29A PncC fluorescence quenching (%) vs buffer did NC(=O)c1cccnc1 [Nam, nicotinamide] show?
[out] 3.71

Just for reference, paper PMC8231969 is where these values come from.
